assayed target: human Nav1.5 (Homo sapiens)
Construct: expressed in transfected cells; host or cells: HEK 293
Sequence (Q14524 whole entry): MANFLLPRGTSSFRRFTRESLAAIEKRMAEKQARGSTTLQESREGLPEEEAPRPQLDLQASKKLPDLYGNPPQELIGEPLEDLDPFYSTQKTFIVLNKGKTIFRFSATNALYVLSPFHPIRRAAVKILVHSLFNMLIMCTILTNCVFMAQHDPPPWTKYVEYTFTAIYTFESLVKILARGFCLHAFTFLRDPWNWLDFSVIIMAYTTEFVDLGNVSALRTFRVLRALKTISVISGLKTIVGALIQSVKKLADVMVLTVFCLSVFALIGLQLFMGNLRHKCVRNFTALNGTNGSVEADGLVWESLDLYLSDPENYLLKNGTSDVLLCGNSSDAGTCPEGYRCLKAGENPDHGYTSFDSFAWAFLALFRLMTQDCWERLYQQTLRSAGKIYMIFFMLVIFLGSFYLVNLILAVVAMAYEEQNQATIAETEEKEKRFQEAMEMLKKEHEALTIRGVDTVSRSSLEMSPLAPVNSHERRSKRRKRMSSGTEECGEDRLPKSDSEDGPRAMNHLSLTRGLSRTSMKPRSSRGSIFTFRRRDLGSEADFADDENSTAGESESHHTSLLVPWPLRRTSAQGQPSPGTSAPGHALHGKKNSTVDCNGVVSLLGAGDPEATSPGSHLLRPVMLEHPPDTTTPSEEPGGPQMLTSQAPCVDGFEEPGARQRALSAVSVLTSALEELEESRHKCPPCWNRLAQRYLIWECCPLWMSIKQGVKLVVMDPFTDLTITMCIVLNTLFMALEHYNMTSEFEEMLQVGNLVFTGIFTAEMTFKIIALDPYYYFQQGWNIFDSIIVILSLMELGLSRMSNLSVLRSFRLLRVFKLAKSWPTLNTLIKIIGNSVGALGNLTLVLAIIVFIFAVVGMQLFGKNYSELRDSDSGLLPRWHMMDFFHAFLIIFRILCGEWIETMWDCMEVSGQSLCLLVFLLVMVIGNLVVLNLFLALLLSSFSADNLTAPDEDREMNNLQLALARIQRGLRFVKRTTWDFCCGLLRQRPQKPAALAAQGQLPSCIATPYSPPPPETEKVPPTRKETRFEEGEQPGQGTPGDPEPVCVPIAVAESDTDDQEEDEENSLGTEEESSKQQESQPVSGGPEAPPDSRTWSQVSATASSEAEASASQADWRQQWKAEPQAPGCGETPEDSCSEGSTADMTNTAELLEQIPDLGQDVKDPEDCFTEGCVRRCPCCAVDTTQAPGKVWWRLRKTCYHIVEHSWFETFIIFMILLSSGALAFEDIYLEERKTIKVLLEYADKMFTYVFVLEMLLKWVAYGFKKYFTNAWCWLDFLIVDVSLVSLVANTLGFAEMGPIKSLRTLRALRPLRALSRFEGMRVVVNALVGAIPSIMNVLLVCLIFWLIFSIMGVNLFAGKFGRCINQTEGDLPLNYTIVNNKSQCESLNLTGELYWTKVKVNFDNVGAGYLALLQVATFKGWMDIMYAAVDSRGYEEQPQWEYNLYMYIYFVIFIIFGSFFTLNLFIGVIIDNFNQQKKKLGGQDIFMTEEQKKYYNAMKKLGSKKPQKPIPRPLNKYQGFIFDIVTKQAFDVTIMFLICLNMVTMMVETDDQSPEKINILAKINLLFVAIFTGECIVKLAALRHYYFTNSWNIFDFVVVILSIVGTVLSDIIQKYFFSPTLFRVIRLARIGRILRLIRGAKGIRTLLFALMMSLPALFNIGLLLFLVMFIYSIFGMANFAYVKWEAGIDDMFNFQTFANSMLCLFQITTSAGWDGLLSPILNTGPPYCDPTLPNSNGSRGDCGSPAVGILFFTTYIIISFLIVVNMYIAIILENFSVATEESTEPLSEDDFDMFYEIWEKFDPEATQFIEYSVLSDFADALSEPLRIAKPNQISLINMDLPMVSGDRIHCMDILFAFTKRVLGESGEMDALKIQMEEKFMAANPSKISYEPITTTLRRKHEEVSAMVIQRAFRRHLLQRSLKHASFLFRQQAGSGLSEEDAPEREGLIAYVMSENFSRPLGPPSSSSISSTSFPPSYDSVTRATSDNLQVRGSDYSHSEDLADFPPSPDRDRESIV
assay procedure: IonWorks Quattro automated patch-clamp, Nav1.5 (selectivity against Nav1.7)
Assay type: cell-based
recorded conditions: IonWorks measurement, HEK 293 cells, inactivated state block
metric name: ratio of Nav 1.7 potency:Nav 1.5 potency

- compound: "C[C@@H](CN)NCCCCNc1cc(F)c(S(=O)(=O)Nc2nccs2)cc1Cl"
  observed: "> 1650"
- compound: "N[C@@H]1CCC[C@H]1NCCCCNc1cc(F)c(S(=O)(=O)Nc2ncns2)cc1Br"
  observed: 3150
- compound: "NC1CCC1NCCCCNc1cc(F)c(S(=O)(=O)Nc2ncns2)cc1Cl (single isomer, unassigned) [Ex 16-83]"
  observed: "> 7020"
- compound: "O=S(=O)(Nc1ncns1)c1cc(Br)c(NCCCCNC[C@H]2CCN2)cc1F"
  observed: "> 1380"
- compound: "CNCCCNCCCCNc1cc(F)c(S(=O)(=O)Nc2ncc(F)s2)cc1Cl"
  observed: "> 1320"

* * *

assayed target: human Nav1.7 (Homo sapiens, UniProt Q15858)
Construct: expressed in transfected cells; host or cells: HEK 293
Sequence (Q15858 whole entry): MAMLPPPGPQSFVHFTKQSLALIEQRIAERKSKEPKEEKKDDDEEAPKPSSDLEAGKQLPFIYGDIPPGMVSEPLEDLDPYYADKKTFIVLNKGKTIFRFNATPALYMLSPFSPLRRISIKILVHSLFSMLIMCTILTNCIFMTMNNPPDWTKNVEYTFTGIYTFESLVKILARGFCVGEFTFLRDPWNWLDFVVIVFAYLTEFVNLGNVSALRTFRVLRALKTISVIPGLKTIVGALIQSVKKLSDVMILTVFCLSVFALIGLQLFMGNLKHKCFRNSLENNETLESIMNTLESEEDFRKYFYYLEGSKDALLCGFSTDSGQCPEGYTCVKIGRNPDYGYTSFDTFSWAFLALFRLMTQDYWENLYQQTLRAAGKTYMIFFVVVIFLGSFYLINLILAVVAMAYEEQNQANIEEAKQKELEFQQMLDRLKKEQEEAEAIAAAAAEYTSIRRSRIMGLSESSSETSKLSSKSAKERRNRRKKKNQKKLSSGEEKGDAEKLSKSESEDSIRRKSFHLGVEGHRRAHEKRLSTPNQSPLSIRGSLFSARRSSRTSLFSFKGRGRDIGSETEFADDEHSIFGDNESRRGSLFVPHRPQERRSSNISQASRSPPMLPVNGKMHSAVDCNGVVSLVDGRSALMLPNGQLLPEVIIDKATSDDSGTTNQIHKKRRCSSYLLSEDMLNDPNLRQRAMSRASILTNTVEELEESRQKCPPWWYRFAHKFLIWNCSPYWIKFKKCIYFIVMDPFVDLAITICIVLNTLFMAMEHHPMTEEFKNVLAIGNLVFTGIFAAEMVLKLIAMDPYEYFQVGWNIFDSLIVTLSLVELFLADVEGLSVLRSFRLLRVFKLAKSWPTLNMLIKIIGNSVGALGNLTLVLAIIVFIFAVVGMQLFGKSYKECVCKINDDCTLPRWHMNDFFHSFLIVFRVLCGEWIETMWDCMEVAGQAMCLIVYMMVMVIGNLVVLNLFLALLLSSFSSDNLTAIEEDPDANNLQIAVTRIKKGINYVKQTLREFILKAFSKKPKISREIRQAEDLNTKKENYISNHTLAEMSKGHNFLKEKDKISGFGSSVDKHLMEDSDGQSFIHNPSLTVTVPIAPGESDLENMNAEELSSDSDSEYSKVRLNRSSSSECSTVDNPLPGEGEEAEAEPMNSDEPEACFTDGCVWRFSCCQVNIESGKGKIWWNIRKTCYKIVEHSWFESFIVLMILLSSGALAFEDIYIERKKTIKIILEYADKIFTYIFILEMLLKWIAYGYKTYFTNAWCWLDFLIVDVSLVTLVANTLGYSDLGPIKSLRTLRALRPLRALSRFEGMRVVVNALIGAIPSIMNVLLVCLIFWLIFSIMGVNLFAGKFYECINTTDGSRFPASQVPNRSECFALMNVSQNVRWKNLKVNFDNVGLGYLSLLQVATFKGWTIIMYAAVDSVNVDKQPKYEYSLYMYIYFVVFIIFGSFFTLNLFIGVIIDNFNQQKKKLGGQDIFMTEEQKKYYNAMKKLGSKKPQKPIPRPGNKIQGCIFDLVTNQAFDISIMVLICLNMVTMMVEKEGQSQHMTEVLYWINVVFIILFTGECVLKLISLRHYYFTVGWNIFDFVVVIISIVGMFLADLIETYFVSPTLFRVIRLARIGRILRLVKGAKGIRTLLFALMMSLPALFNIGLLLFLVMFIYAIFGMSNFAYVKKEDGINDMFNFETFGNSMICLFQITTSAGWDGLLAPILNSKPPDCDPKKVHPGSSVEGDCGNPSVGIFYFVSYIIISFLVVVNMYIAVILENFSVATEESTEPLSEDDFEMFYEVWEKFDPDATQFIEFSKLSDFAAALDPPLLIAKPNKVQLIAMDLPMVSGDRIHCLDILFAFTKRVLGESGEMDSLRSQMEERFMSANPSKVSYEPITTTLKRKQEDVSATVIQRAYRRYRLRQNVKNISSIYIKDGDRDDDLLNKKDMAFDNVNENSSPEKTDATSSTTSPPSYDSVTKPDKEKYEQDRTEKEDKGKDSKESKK
assay procedure: IonWorks Quattro automated patch-clamp, inactivated state block of Nav1.7
Assay type: cell-based
recorded conditions: channels stably expressed in HEK 293 cells; double-pulse protocol, inactivated state block; read-out: potency for the Nav 1.7 sodium ion channel (IC50, as measured by IonWorks)
Method: Compounds were tested on human Nav1.7 and Nav1.5 channels stably expressed in HEK 293 cells. […] Cells were sealed on a planar substrate using the Population Patch […] (PPC) technology. Electrical access was obtained using both nystatin and amphotericin. […] For all electrophysiology experiments, offline analysis was used to determine percent inhibition as a function of drug concentration. IC50 values were determined by fitting to the Hill equation.
pIC50: −log10 of the molar value.

- compound structure string: "O=S(=O)(Nc1ncns1)c1cc(Cl)c(NCCCCNC[C@H]2CCCN2)cc1F"
  pIC50: 8.08
- compound structure string: "C[C@H](CCN)NCCCCNc1cc(F)c(S(=O)(=O)Nc2ncc(F)s2)cc1Cl"
  pIC50: 7.59
- compound structure string: "O=S(=O)(Nc1nccs1)c1cc(Cl)c(NCCCCN[C@H]2CCCCNC2)cc1F"
  pIC50: 7.85
- compound structure string: "CC(C)C[C@@H](CNCCCCNc1cc(F)c(S(=O)(=O)Nc2ncc(F)s2)cc1Cl)[C@@H](C)N"
  pIC50: 8.21
- compound structure string: "NCCCNCCCCNc1cc(F)c(S(=O)(=O)Nc2ncc(F)s2)cc1Cl"
  pIC50: 7.85
- compound structure string: "N[C@H]1CCC[C@@H]1NCCCCNc1cc(F)c(S(=O)(=O)Nc2nccs2)cc1Cl"
  pIC50: 7.96
- compound structure string: "O=S(=O)(Nc1ncc(F)s1)c1cc(Cl)c(NCCCCNCC[C@H]2CCCN2)cc1F"
  pIC50: 7.74
- compound structure string: "O=S(=O)(Nc1ncns1)c1cc(Br)c(NCCCCNC[C@@H]2CCN2)cc1F"
  pIC50: 7.77
- compound structure string: "O=S(=O)(Nc1ncns1)c1cc(Cl)c(NCCCCNCCCNCCF)cc1F"
  pIC50: 7.43

* * *

Catalogue of pIC50 values
assayed target: human Nav1.7 (Homo sapiens, UniProt Q15858)
Construct: expressed in transfected cells; host or cells: HEK 293
assay procedure: IonWorks Quattro automated patch-clamp, inactivated state block of Nav1.7
Type: cell-based
recorded conditions: channels stably expressed in HEK 293 cells; double-pulse protocol, inactivated state block; read-out: potency for the Nav 1.7 sodium ion channel (IC50, as measured by IonWorks)
pIC50: −log10 of the molar value.

- compound: "N[C@@H]1CCC[C@H]1NCCCCNc1cc(F)c(S(=O)(=O)Nc2ncns2)cc1Cl"
  assayed target: "human Nav1.7 (Homo sapiens, UniProt Q15858)"
  pIC50: 8.22
- compound: "N[C@H]1CCC[C@H]1NCCCCNc1cc(F)c(S(=O)(=O)Nc2ncc(F)s2)cc1Cl"
  assayed target: "human Nav1.7 (Homo sapiens, UniProt Q15858)"
  pIC50: 7.64
- compound: "N[C@@H]1CCC[C@H]1NCCCCNc1cc(F)c(S(=O)(=O)Nc2nccs2)cc1Cl"
  assayed target: "human Nav1.7 (Homo sapiens, UniProt Q15858)"
  pIC50: 8.04
- compound: "NC1CCC1NCCCCNc1cc(F)c(S(=O)(=O)Nc2ncns2)cc1Cl (single isomer, unassigned) [Ex 16-82]"
  assayed target: "human Nav1.7 (Homo sapiens, UniProt Q15858)"
  pIC50: 8.48

* * *

assayed target: human Nav1.7 (Homo sapiens)
Construct: expressed in transfected cells; host or cells: HEK 293
assay procedure: IonWorks Quattro automated patch-clamp, inactivated state block of Nav1.7
Format: cell-based
recorded conditions: channels stably expressed in HEK 293 cells; double-pulse protocol, inactivated state block; read-out: potency for the Nav 1.7 sodium ion channel (IC50, as measured by IonWorks)

- compound structure string: "C[C@H](CN)NCCCCNc1cc(F)c(S(=O)(=O)Nc2ncc(F)s2)cc1Cl"
  IC50: "17 nM"
- compound structure string: "NC1(CNCCCCNc2cc(F)c(S(=O)(=O)Nc3ncc(F)s3)cc2Cl)CC1"
  IC50: "56 nM"
- compound structure string: "C[C@H](CCN)NCCCCNc1cc(F)c(S(=O)(=O)Nc2ncns2)cc1Cl"
  IC50: "56 nM"

* * *

assayed target: human Nav1.7 (Homo sapiens, UniProt Q15858)
Construct: expressed in transfected cells; host or cells: HEK 293
assay procedure: IonWorks Quattro automated patch-clamp, inactivated state block of Nav1.7
Type: cell-based
recorded conditions: channels stably expressed in HEK 293 cells; double-pulse protocol, inactivated state block; read-out: potency for the Nav 1.7 sodium ion channel (IC50, as measured by IonWorks)
pIC50: −log10 of the molar value.

- compound structure string: "O=S(=O)(Nc1ncc(F)s1)c1cc(Cl)c(NCCCCNC[C@@H]2CCCN2)cc1F"
  assayed target: "human Nav1.7 (Homo sapiens, UniProt Q15858)"
  pIC50: 8.00
- compound structure string: "CNCCCNCCCCNc1cc(F)c(S(=O)(=O)Nc2ncc(F)s2)cc1Br"
  assayed target: "human Nav1.7 (Homo sapiens, UniProt Q15858)"
  pIC50: 7.92
- compound structure string: "NCC1(NCCCCNc2cc(F)c(S(=O)(=O)Nc3ncc(F)s3)cc2Cl)CCC1"
  assayed target: "human Nav1.7 (Homo sapiens, UniProt Q15858)"
  pIC50: 7.44
- compound structure string: "O=S(=O)(Nc1ncns1)c1cc(Br)c(NCCCCN[C@H]2CCNC2)cc1F"
  assayed target: "human Nav1.7 (Homo sapiens, UniProt Q15858)"
  pIC50: 7.82
- compound structure string: "O=S(=O)(Nc1nccs1)c1cc(Cl)c(NCCCCNC[C@@H]2CCN2)cc1F"
  assayed target: "human Nav1.7 (Homo sapiens, UniProt Q15858)"
  pIC50: 7.11
- compound structure string: "O=S(=O)(Nc1ncns1)c1cc(Cl)c(NCCCCNCC[C@@H]2CCCN2)cc1F"
  assayed target: "human Nav1.7 (Homo sapiens, UniProt Q15858)"
  pIC50: 7.51
- compound structure string: "C[C@@H](N)CCNCCCCNc1cc(F)c(S(=O)(=O)Nc2ncc(F)s2)cc1Cl"
  assayed target: "human Nav1.7 (Homo sapiens, UniProt Q15858)"
  pIC50: 7.85
- compound structure string: "N[C@H]1CC[C@H](NCCCCNc2cc(F)c(S(=O)(=O)Nc3ncns3)cc2Br)C1"
  assayed target: "human Nav1.7 (Homo sapiens, UniProt Q15858)"
  pIC50: 7.46
- compound structure string: "C[C@@H](CN)NCCCCNc1cc(F)c(S(=O)(=O)Nc2nccs2)cc1Cl"
  assayed target: "human Nav1.7 (Homo sapiens, UniProt Q15858)"
  pIC50: 7.70
- compound structure string: "N[C@H]1CCC[C@@H]1NCCCCNc1cc(F)c(S(=O)(=O)Nc2ncns2)cc1Cl"
  assayed target: "human Nav1.7 (Homo sapiens, UniProt Q15858)"
  pIC50: 8.07
- compound structure string: "CN[C@H](C)CNCCCCNc1cc(F)c(S(=O)(=O)Nc2ncc(F)s2)cc1Cl"
  assayed target: "human Nav1.7 (Homo sapiens, UniProt Q15858)"
  pIC50: 7.55
- compound structure string: "C[C@H](N)CNCCCCNc1cc(F)c(S(=O)(=O)Nc2nccs2)cc1Cl"
  assayed target: "human Nav1.7 (Homo sapiens, UniProt Q15858)"
  pIC50: 7.89
- compound structure string: "NCCCNCCCCNc1cc(F)c(S(=O)(=O)Nc2ncns2)cc1Br"
  assayed target: "human Nav1.7 (Homo sapiens, UniProt Q15858)"
  pIC50: 7.74
- compound structure string: "CNCCNCCCCNc1cc(F)c(S(=O)(=O)Nc2ncns2)cc1Cl"
  assayed target: "human Nav1.7 (Homo sapiens, UniProt Q15858)"
  pIC50: 8.06
- compound structure string: "C[C@@H](CN)NCCCCNc1cc(F)c(S(=O)(=O)Nc2ncc(F)s2)cc1Cl"
  assayed target: "human Nav1.7 (Homo sapiens, UniProt Q15858)"
  pIC50: 7.80
- compound structure string: "C[C@H](CCN)NCCCCNc1cc(F)c(S(=O)(=O)Nc2ncns2)cc1Br"
  assayed target: "human Nav1.7 (Homo sapiens, UniProt Q15858)"
  pIC50: 8.27
- compound structure string: "NCCNCCCCNc1cc(F)c(S(=O)(=O)Nc2ncns2)cc1Br"
  assayed target: "human Nav1.7 (Homo sapiens, UniProt Q15858)"
  pIC50: 8.02
- compound structure string: "O=S(=O)(Nc1ncns1)c1cc(Cl)c(NCCCCNCC[C@H]2CCCN2)cc1F"
  assayed target: "human Nav1.7 (Homo sapiens, UniProt Q15858)"
  pIC50: 7.10
